Sourced from PubChem BioAssay (NCI)

- Test system: SNB-19 CNS
- procedure summary: NCI-60 one-dose screen, 48 h (100 = growth as untreated, 0 = no growth, -100 = all killed)
- test parameters: 10 µM unless noted
This is part of a sample that, as a whole, favours compounds with a hit. Of some 83,000 tested, about 20% had one in any assay.
For each entry below, report its growth value.
One number for each entry, in %.

Consider the following illustrative entries.
CCN(CC)C(=O)C1=C(C)NC(=O)NC1c1ccc2c(c1)OCO2 (centres undefined) = 96.2
O=C(/C=C/c1cccc(Oc2ccccc2)c1)c1ccc(Nc2nc(Nc3ccc(F)cc3)nc(Nc3ccc(Cl)cc3)n2)cc1 = 108
CC(C)(C)OC(=O)CN1CCc2c(sc3ncnc(N4CCN(c5ccc(F)cc5)CC4)c23)C1 = 88
O=C(c1cccc(N2CCOCC2)n1)c1c[nH]c2ccccc12 = 99.4
O=C(Oc1ccc2c(c1)sc1nc(-c3ccccc3)[nH]c(=O)c12)C(F)(F)F = 45.6

Fill in growth for each of the 2 compounds listed.
1. Fc1ccc2[nH]cc(-c3nc(-c4c[nH]c5c(Cl)nccc45)cs3)c2c1
2. ClCCn1cnc2c(SCc3ccccc3)ncnc21

[59.9, 50.5]

Fill in growth for each of the 2 compounds listed.
1. CSc1ccc2c3c(n(CCCn4ccnc4)c(=O)c2c1)-c1ccccc1C3=O
2. C=C(C)[C@@H]1CC[C@]2(C(=O)N3CCN(C)CC3)CC[C@]3(C)[C@H](CC[C@@H]4[C@@](C)(CCC(=O)O)[C@H](C(=C)C)CC[C@]43C)[C@@H]12

1. 33.2
2. 93.6
